- experimental-protocol: Cytotoxicity against human HeLa cells assessed as alterations in normal cell morphology measured after 3 to 6 days by microscopic analysis
- Type: cell-based
observation-type: MCC

What value of MCC has been reported for the following compound? `CCCN1C(N)=NC(N)=NC12CCN(C(=O)C1CC1)CC2` > 100 µM

What value of MCC has been reported for the following compound? `CCCCC(=O)N1CCC2(CC1)N=C(N)N=C(N)N2c1cccc(OC)c1` > 100 µM

What value of MCC has been reported for the following compound? `COc1cccc(N2C(N)=NC(N)=NC23CCN(C(=O)c2ccc(C(F)(F)F)cc2C)CC3)c1` > 100 µM

What value of MCC has been reported for the following compound? `COc1cccc(N2C(N)=NC(N)=NC23CCN(C(=O)OC(C)(C)C)CC3)c1` > 100 µM

What value of MCC has been reported for the following compound? `COCCN1C(N)=NC(N)=NC12CCN(C(=O)C1CC1)CC2` > 100 µM

What value of MCC has been reported for the following compound? COCCN1C(N)=NC(N)=NC12CCN(C(=O)NC1CCC(C)CC1)CC2 (centres undefined) > 100 µM

What value of MCC has been reported for the following compound? `CCS(=O)(=O)N1CCC2(CC1)N=C(N)N=C(N)N2CCOC` > 100 µM

What value of MCC has been reported for the following compound? `CC(C)(C)OC(=O)N1CCC2(CC1)N=C(N)N=C(N)N2c1cccc(Cl)c1` > 100 µM

What value of MCC has been reported for the following compound? `CCCN1C(N)=NC(N)=NC12CCN(C(=O)NCCC(=O)OCC)CC2` > 100 µM

What value of MCC has been reported for the following compound? Cl.NC1=NC2(CCCN(Cc3ccccc3)C2)N(c2ccc(Cl)cc2)C(N)=N1 (centres undefined) 100 µM

* * *

- experimental-protocol: Selectivity index, ratio of MCC for human HeLa cells to EC50 for Respiratory syncytial virus Long infected in human HeLa cells
- Assay type: toxicity, cell-based
- recorded-conditions: read-out: Selectivity Index
observation-type: selectivity ratio
Output: the number by itself.

Cc1ccc(C(=O)N2CCC3(CC2)N=C(N)N=C(N)N3c2cccc(Cl)c2)cc1
250

We next turn to a different compound, shown below.
What value of selectivity ratio has been reported for the following compound? `NC1=NC2(CCN(C(=O)Nc3ccc(F)cc3)CC2)N(c2cccc(Cl)c2)C(N)=N1` 56

* * *

- System: MDCK
- experimental-protocol: Cytotoxicity against MDCK cells assessed as reduction in cell viability measured after 3 to 6 days by MTS assay
- Assay type: cell-based, Canis lupus familiaris
- recorded-conditions: dog
observation-type: CC50

COCCN1C(N)=NC(N)=NC12CCN(S(=O)(=O)c1ccccc1)CC2
> 100 µM
CC(C)(C)OC(=O)N1CCC2(CC1)N=C(N)N=C(N)N2c1cccc(Cl)c1
> 100 µM
NC1=NC2(CCNCC2)N(c2cccc(Cl)c2)C(N)=N1
> 100 µM

What value of CC50 has been reported for the following compound? COCCN1C(N)=NC(N)=NC12CCN(C(=O)NC1CCC(C)CC1)CC2 (stereo unspecified) > 100 µM

What value of CC50 has been reported for the following compound? `COCCN1C(N)=NC(N)=NC12CCN(C(=O)Nc1ccc(OC)cc1)CC2` > 100 µM

What value of CC50 has been reported for the following compound? NC12CC3CC(CC(C3)C1)C2 [AMANTADINE] > 500 µM
